targetOrTestSystem: GPNMB-V5His (recombinant human GPNMB extracellular domain with C-terminal V5-His tag) (human) (UniProt Q14956)
assayNotes: SPR (Biacore), mAb on protein A, GPNMB 880 nM
experimentalReadout: Kd (µM)
Return type: number; implicit unit µM.

Request: For the binder Mab1.10.2 (antibody, human IgG2, V domains shown) VH: QVQLQESGPGLVKPSETLSLTCTVSGDSISNYYWSWIRQPPGKGLEWIGYFYYSGSTNYNPSLKSRVTISVDTSKNQFSLKLSSVTAADTAVYYCARDRGWADYWGQGTLVTVSS VL: EIVLTQSPGTLSLSPGERATLSCRTSQSISSSYLAWYQQKPGQVPRLLIYGASSRATGIPDRFSGSGSGTDFTLTISRLEPEDFAVYYCQQYGSSITFGQGTRLEIKR , what Kd is on record?
Result: 0.118

Request: What do you have for GPNMB antibody (1.10.1) (antibody, V domains shown) VH: QVQLQESGPGLVKPSETLSLTCTVSGDSISNYYWSWIRQPPGKGLEWIGYFYYSGSTNYNPSLKSRVTISVDTSKNQFSLKLSSVTAADTAVYYCARDRGWADYWGQGTLVTVSS VL: EIVLTQSPGTLSLSPGERATLSCRTSQSISSSYLAWYQQKPGQVPRLLIYGASSRATGIPDRFSGSGSGTDFTLTISRLEPEDFAVYYCQQYGSSITFGQGTRLEIKR ?
Result: 0.209

Request: Then Mab1.7.1 (antibody, human IgG2, V domains shown) VH: QVQLQESGPGLVKPSQTLSLTCTVSGGSISSANYYWTWIRQHPGKGLEWIGYIYYSGSTYCNPSLKSRVIISVDTSKNQFSLKLSSVTAADTAVYYCARGYNWNYFDYWGQGTLVTVSS VL: DIVMTQSPATLSVSPGERATLSCRASQSVSSNLAWYQERPGQAPRLLIYGASTRATGIPARFSGSGSGTEFTLTISSLQSEDFAVYYCQQYNKWPPWTFGQGTKVEIER ?
Result: 0.122

Request: Quick one: Mab1.2.2 (antibody, human IgG2, V domains shown) VH: ITLKESGPTLVKPTQTLTLTCTFSGFSLSAGGVGVGWIRQPPGKALEWLALIYWNDDKRYSPSLRSRLTITKDTSKNQVVLTITNMDPVDTATYYCAHSHYDYDWGSYFDYWGQGTLVTVSS VL: DIVMTQTPLSLPVTPGEPASISCRSSQSLLDSDDGNTYLDWYLQKPGQSPQLLIYTLSYRASGVPDRFSGSGSGTDFTLNISRVEAEDVGVYYCMQRIEFPITFGQGTRLEIKR
Result: 0.096
